# method-description: soluble on expression in E. coli; label from the status in PepcDB or PDB records

# sequence, soluble on expression in E. coli
rows = [
    ("MSMAMSQSNRELVVDFLSYKLSQKGYSWSQFSDVEENRTEAPEGTESEMETPSAINGNPSWHLADSPAVNGATGHSSSLDAREVIPMAAVKQALREAGDEFELRYRRAFSDLTSQLHITPGTAYQSFEQVVNELFRDGVNWGRIVAFFSFGGALCVESVDKEMQVLVSRIAAWMATYLNDHLEPWIQENGGWDTFVELYGNNAAAESRKGQERLEHHHHHH", "soluble"),
    ("SLTTFATEWEKQLELYPEEYRKAYRRVKRASEILLREPEPQVGLTPKEVIWTKNKTKLYRYIPKQEKTQRVPILLIYALINKPYIMDLTPGNSLVEYLVDRGFDVYMLDWGTFGLEDSHLKFDDFVFDYIAKAVKKVMRTAKSDE", "soluble"),
]

###

# method-description: soluble on expression in E. coli; label from the status in PepcDB or PDB records

# sequence, soluble on expression in E. coli
records = [
    ("MSQQKICFIGAGNMTRSIISGLIRSGYPASQVQATNPSQGKLDALATDFGVRVSQDNVSAAQDADVIILSVKPQLMEQVCQALQGIDMSNKLLITIAAGIKASRYSEYLAQPITLIRTMPNTPMQIGVGMTGLYAPQSLSDAQKAIAERLMSSGGEIVWVNEESDINQVIALAGSSPAYFFLLMESMIDAGKQMGMDEAKARSLVQQAALGAAMMAKQNPELTLGNLRENVTSKGGTTAQAIATFEAADLRGVVKKAMENCINRAEEMAKTF", "soluble"),
    ("GMSDQRYNLRGVSASKEDVHNAIKNIDKGIFPKAFCKIIPDILGGDPEYCNIMHADGAGTKSSLAYMYWKETGDLSVWKGIAQDALIMNIDDLLCVGAVDNILVSSTIGRNKLLVPGEVISAIINGTDELLAELREMGVGCYATGGETADVGDLVRTIIVDSTVTCRMKRSDVIDNKNIQGGDVIVGLASSGQATYEKEYNGGMGSNGLTSARHDVFSKYLAKKYPESYDAAVPKELVYSGGLKLTDKIEELGIDAGKMVLSPTRTYAPVIKVLLDKLRSQIHGMVHCSGGAQTKVMHFVENKRVTKDNLFPIPPLFRTIQEQSGTDWSEMYKVFNMGHRMEIYIAPEHAEEVIGISKSFGIDAQIVGFVEEADKNELIIESEKGRFTY", "soluble"),
    ("PFSWRHYIVLSRQDLEEYGEEIIAHEYAHIMHKHFRDLLLAEICLLFQWFNPAMWLFRKELKTVHEFEADESVLKAGIDAKKYQLLLI", "not soluble"),
    ("MSLTVRFTESVSKQDLDALFEWAKASYGAESCWKTLYLNGLPLGNLSPEWVERVKKDWEAGCSESSDGIFLNADGWPDMGGRLQHLALGWHCAGLLDGWRNECFDLTDGGGNPLFTLERAAFRPFGLLSRAVHLNGLTESDGRWHFWIGRRSPHKAVDPNKLDNTAAGGVSGGEMPSEAVCRESSEEAGLDKTLLPLIRPVSQLHSLRSVSRGVHNEILYVFDAVLPETFLPENQDGEVAGFEKMDIGGLLDAMLSGNMMHDAQLVTLDAFCRYGLIDAAHPLSEWLDGIREGHHHHHH", "not soluble"),
    ("MPEGFDAYCICTGTPTARDLSIPGRELKGIHFALEMLAQQNRILEGQTFPKDKLVNAKGKKVLVIGGGDTGSDCIGTSVRQGATSVTQIEIMPKPPVGHNPSTPWPQWPVVFKTTSSHEEGCTRRWCLTSNQFLGKNGKVTGVEVEEVEWTPATDGGRPTMNLTGKKEVIEADMVLLAMGFLKPEQPKFAENVFLAGDAATGASLVVRAMAGGRKAAADIDHYLEHHHHHH", "not soluble"),
    ("MSLEYKLTPSYLLKENMVLACGNILFADDGFSVHVIEKLQELLTEEEKENIALVDAGAGAPQQVLTLIDSEAKTKKIIVVDIIDYGLEPGEIKILTMDDLPKPEHTKVDSHDWPLSTTMYRVFRDAPHEIDFKVVGCQKKYVSEPDVVIELSEEVQNAVDVAVDIVLSELRGKPINEGHHHHHH", "soluble"),
    ("MTEMKILIVTLTYIEKSIIDEIVNNLSSYGLEVDILLDSRKYLPISAFNWERLQYDAEKVLSFLKSIHDFNYDSIIFLADSDGYIDGYNFVFGLTIDNFAIIFLHRLREEFYNRKPDLDLFMKRVVKEVTHEVGHTLGLSHCNTTGCVMNFSNSVEDVDKKQAKFCKNCAHKIEKLSKYLQQKLEHHHHHH", "not soluble"),
    ("MGSDKIHHHHHHMIRSTLSSWREYLTPITHKSTFLTTGQITPEEFVQAGDYLCHMFPTWKWNEESSDISYRDFLPKNKQFLIIRKVPCDKRAEQCVEVEGPDVIMKGFAEDGDEDDVLEYIGSETEHVQSTPAGGTKDSSIDDIDELIQDMEIKEEDENDDTEEFNAKGGLAKDMAQERYYDLYIAYSTSYRVPKMYIVGFNSNGSPLSPEQMFEDISADYRTKTATIEKLPFYKNSVLSVSIHPCKHANVMKILLDKVRVVRQRRRKELQEEQELDGVGDWEDLQDDIDDSLRVDQYLIVFLKFITSVTPSIQHDYTMEGW", "not soluble"),
    ("MSLGESRKHIDYKKGTINLNGVEYPLNDTNFPTINPENPLELLEEEAELLDKLQASFLGSEKLQKHMQLLFAKGGMYLKYNSNLLFHACIPMEPNGEFSKLYVEDGYYKGKALMDKIDNIVRQAYYDRKNVEVNKKHRDFIWYLWAGRLSPLFGKDVMKTFERYFIDDKSTHKEIKNPYHKLINDEKICDKIFEEFGLNPRTSHIINGHIPVKVKEGESPIKANGKLLIIDGGFSRAYQSTTGIAGYTLTYNSYGMKLASHLKFISKEAAIKDGTDMISSHIIVETKSKRMKVKDTDIGKNIQNQINDLKKLLKAYRIGLIKSNEGHHHHHH", "not soluble"),
    ("MGSDKIHHHHHHMDIENMKAFNKVAELKSISAAANELHHLQSNMSNKIKNIEKQFQTQLFFRHSNGVELTKEGEKIYQQFKKMILLWEETIDIINNEEETISIGITQSSLPMEFNTIIKEFYQQFPNKKLSIVSGSTSELIPKIANRELTIAYVAELEKENLFQDSQIISQTLSWDKLVFAGNTAGKSVQKILAEERLYVFSKQCYSYRALAALINDFNIPNVSISEINIPETLVEICNNELGVGIIPESIALNYHFLNYETLPTEYAALRKTLIYHADHTISNGEKWLIEKSKPAFKS", "not soluble"),
    ("MAHHHHHHMASADSKAVLLSSQPGATAYSSTVAVKVQAGRMILQDGIVRPLLGSGFLFLLREGLLQDTVLTWVSSDGEEQCRVTLPPGRVKVSWVEKCRPSRVLLFDIDNGKQPLFFWMQSRSDELDEPVMHRIQHAIERNRQQAVAQHGRREIKMGTLQNILSDLWSEALAHDVNLVDILGSEKLLKALQEDPGFYTLRLKDYLPLGELDSGVPLDLKKLMNDRQVQWTAEILGTLLRHETTYSQLSASFLNGTMLWGANVTSFIVSIINIFLPQNEQQQMGESDN", "not soluble"),
]
